As shown below, each of these variants has a reported protein stability index value.
B1: PHTF1 (parent)
chain: SRHLNSQVKKTTTRWCHIVRDSDS

# Variants of: B1
# METHOD: protein stability index of a GFP-peptide fusion (GPS, HEK-293T) (PSI 1-6); higher = more stable;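 note: lentivirally expressed fusions sorted by FACS into six bins by GFP to DsRed ratio, PSI derived from sequencing read proportions per bin multiplied by bin number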
# CONDITION_NOTES: c terminus: a fixed tail appended
PROPERTY_LABEL: protein stability index

# VARIANT_NAME, EXPERIMENTAL_RESULT
rows = [
    ("S24Y", 1.53),
    ("S6M", 1.93),
    ("L4D", 1.99),
    ("N5L", 1.92),
    ("R2N", 1.87),
    ("V19R", 2.2),
    ("V8I", 2.35),
    ("S1P", 2.47),
    ("H3W", 1.53),
    ("H17F", 2.75),
    ("W15R", 3.94),
    ("W15D", 4.57),
    ("T13P", 1.8),
    ("R2L", 2.17),
    ("T11P", 2),
    ("T11R", 2.12),
    ("I18S", 3.95),
    ("S6Y", 2.86),
    ("K9D", 2.23),
    ("N5G", 2.79),
    ("K9P", 2.71),
    ("R20H", 2.29),
]
